Property: viscosity at 40° C.; scope: individual compounds
assay: Kinematic viscosity (IS: 1448: P-25); type: physicochemical; conditions: in cSt
Answer with a number only.

Exercise: Query viscosity at 40° C. for CCCCC(CC)COC(=O)CCCCC(=O)OCC(CC)(COC(=O)CCCCC(=O)OCC(CC)CCCC)COC(=O)CCCCC(=O)OCC(CC)CCCC (stereo not drawn)
Key: 26.51

----------
assay: Pour point (IS: 1448: P-10); assay type: physicochemical
readout.label: pour point

Solved entries:
                                   compound  observed_result
0  CCCCC(CC)COC(=O)CCCCC(=O)OCC(C)(C)COC(=O)CCCCC(=O)OCC(CC)CCCC (centres unmarked)         > −39 °C
1  CCCCC(CC)COC(=O)CCCCCCCC(=O)OCC(CC)(CC)COC(=O)CCCCCCCC(=O)OCC(CC)CCCC (centres unmarked)         > −39 °C
2  CCCCC(CC)COC(=O)CCCCC(=O)OCC(CC)(COC(=O)CCCCC(=O)OCC(CC)CCCC)COC(=O)CCCCC(=O)OCC(CC)CCCC (centres unmarked)         > −15 °C
3  CCCCC(CC)COC(=O)CCCCCCCCC(=O)OCC(CC)(COC(=O)CCCCCCCCC(=O)OCC(CC)CCCC)COC(=O)CCCCCCCCC(=O)OCC(CC)CCCC (centres unmarked)         > −24 °C

Now for another entry.
Exercise: Query pour point for CCCCC(CC)COC(=O)CCCCCCCC(=O)OCC(CC)(COC(=O)CCCCCCCC(=O)OCC(CC)CCCC)COC(=O)CCCCCCCC(=O)OCC(CC)CCCC (centres unmarked)
Key: > −27 °C

----------
Test: Kinematic viscosity (IS: 1448: P-25)
Assay type: physicochemical
Conditions: in cSt
Protocol: In an embodiment of the present invention the polyol complex ester base oils may be selected from the viscosity range of 34.26 to 43.54 cSt at 40° C. as per IS: 1448: P-25 matching the specification and a high viscosity index of 161-171 as per P-56. The synthesized products have the following characteristics: • a. The prepared esters have viscosity grade of 31.0 to 47.0 cSt at 40° C. as per P-25 matching the specification and a high viscosity index of 161-171 as per P-56. • b. […]
Property: viscosity at 40° C.; scope: individual molecules
Answer with a number only.

Solved entries:
>>> df
                                   molecule  observed_result
0  CCCCC(CC)COC(=O)CCCCC(=O)OCC(CC)(CC)COC(=O)CCCCC(=O)OCC(CC)CCCC (centres unmarked)             91.3
1  CCCCC(CC)COC(=O)CCCCCCCCC(=O)OCC(CC)(COC(=O)CCCCCCCCC(=O)OCC(CC)CCCC)COC(=O)CCCCCCCCC(=O)OCC(CC)CCCC (centres unmarked)              111
2  CCCCC(CC)COC(=O)CCCCCCCCC(=O)OCC(C)(C)COC(=O)CCCCCCCCC(=O)OCC(CC)CCCC (centres unmarked)            90.33
3  CCCCC(CC)COC(=O)CCCCCCCC(=O)OCC(CC)(COC(=O)CCCCCCCC(=O)OCC(CC)CCCC)COC(=O)CCCCCCCC(=O)OCC(CC)CCCC (centres unmarked)            46.07

Exercise: Query viscosity at 40° C. for CCCCC(CC)COC(=O)CCCCCCCC(=O)OCC(C)(C)COC(=O)CCCCCCCC(=O)OCC(CC)CCCC (centres unmarked)
Key: 25.44

Exercise: Query viscosity at 40° C. for CCCCC(CC)COC(=O)CCCCCCCC(=O)OCC(CC)(CC)COC(=O)CCCCCCCC(=O)OCC(CC)CCCC (centres unmarked)
Key: 47.0

Exercise: Query viscosity at 40° C. for CCCCC(CC)COC(=O)CCCCCCCCC(=O)OCC(CC)(CC)COC(=O)CCCCCCCCC(=O)OCC(CC)CCCC (centres unmarked)
Key: 36.8

Exercise: Query viscosity at 40° C. for CCCCC(CC)COC(=O)CCCCC(=O)OCC(C)(C)COC(=O)CCCCC(=O)OCC(CC)CCCC (centres unmarked)
Key: 31.00

This collection of values is drawn from patent US11142718B2.
